Target: feline FcRn complex (FcRn-α subunit and β-microglobulin), biotin labeled (feline)
Test: SPR, pH 6
measured-property: pKd
# reply with the number alone; pKd is -log10 of concentration in mol/L

Briefly, pKd measured for feline IgG1a D312P/L314K (antibody, part only; not given: Variable domains, not shown: another chain or arm of the molecule) constant: ASTTAPSVFPLAPSCGTTSGATVALACLVLGYFPEPVTVSWNSGALTSGVHTFPAVLQASGLYSLSSMVTVPSSRWLSDTFTCNVAHPPSNTKVDKTVRKTDHPPGPKPCDCPKCPPPEMLGGPSIFIFPPKPKDTLSISRTPEVTCLVVDLGPDDSDVQITWFVDNTQVYTAKTSPREEQFNSTYRVVSVLPILHQPWKKGKEFKCKVNSKSLPSPIERTISKAKGQPHEPQVYVLPPAQEELSRNKVSVTCLIKSFHPPDIAVEWEITGQPEPENNYRTTPPQLDSDGTYFVYSKLSVDRSHWQRGNTYTCSVSHEALHSHHTQKSLTQSPGK : 8.14
